Assay: Solubility in various solvents at 37° C.
Format: physicochemical
Details: aqueous buffer; pH 7 buffer, ionic strength 0.2, 37° C., based on the weight of amlodipine

{"compound": "CCOC(=O)C1=C(COCCN)NC(C)=C(C(=O)OC)C1c1ccccc1Cl (stereo not shown) [Besylate, Amlodipine Besylate]", "measurement_unit": "µg/mL", "solubility": 1590}

----------
Test: Solubility in various solvents at 37° C.
Type: physicochemical
Conditions: aqueous buffer; pH 6 buffer, ionic strength 0.2, 37° C., based on the weight of amlodipine
property_measured: solubility (µg/mL)

{"compound": "CCOC(=O)C1=C(COCCN)NC(C)=C(C(=O)OC)C1c1ccccc1Cl (stereo not shown) [Besylate, Amlodipine Besylate]", "property_measured": "solubility", "measurement_unit": "µg/mL", "recorded_value": 3190}
